- Tested on: blood platelet-rich plasma
- METHOD NOTES: Evaluation of LDH activity of blood platelet-rich plasma samples with surfactant (JSCC transferable method)
- Format: cell-based, human
- MEASUREMENT CONTEXT: sample with 0.6% of surfactant, sample without surfactant taken as 100; 37° C.
Answer each item with its documented LDH Activity.

**Query** Would you kindly share the measured LDH Activity for POE (12) oleylether [EMALEX 512] ?
**Result** 307

**Query** Would you kindly share the measured LDH Activity for sodium α-olefin sufonate [NIKKOL OS-14] ?
**Result** 212

**Query** Would you kindly share the measured LDH Activity for POE (20) oleylether [EMALEX 520] ?
**Result** 297

**Query** Would you kindly share the measured LDH Activity for POE (5) oleylether [EMALEX 505] ?
**Result** 295
